So I've got a bunch of compounds here, and I need their inhibition at 1 µM values.
tested on: JAK1/3 signaling to STAT6 in Ramos B cells; experiment: IL4 stimulation of JAK1/3 signaling to STAT6 in Ramos B cells (pSTAT6 Y641, FACS); assay type: cell-based; details: Homo sapiens, 1.0 uM compound, read-out: IL-4/STAT6 in Ramos Percent Inhibition at 1.0 uM
Numbers only, in %.

Example entries begin here.
# Compound, Recorded Value
data = [
    ("NC(=O)c1cnc(Nc2ccc(N3CCCCC3=O)cc2)cc1NCc1cc(F)ccc1F [Example 94]", 62),
    ("NC(=O)c1cnc(Nc2ccc(N3CCCCC3)cc2)cc1NCc1ccccc1F [Example 74]", 43),
    ("COc1cc(Nc2cc(NCc3cccc(F)c3)c(C(N)=O)cn2)ccc1N1CCCC1=O [Example 63]", 46),
    ("Cc1ccc(Nc2cc(NCc3ccccc3)c(C(N)=O)cn2)cc1 [Example 10]", 20),
    ("NC(=O)c1cnc(Nc2ccc(C3CCN(C4CCCC4)CC3)cc2)cc1NCc1ccccc1F [Example 109]", 60),
]

Record inhibition at 1 µM per entry; entries follow.
1. NC(=O)c1cnc(Nc2ccc(C(=O)N3CCCC3)cc2)cc1NCc1ccccc1 [Example 39]
2. NC(=O)c1cnc(Nc2cccc(N3CCCCC3)c2)cc1N[C@H](CO)c1ccccc1 [Example 76]
3. CN(C)C(=O)c1ccc(Nc2cc(NCc3cc(F)ccc3F)c(C(N)=O)cn2)cc1 [Example 92]
4. CC(=O)N1CCN(c2ccc(Nc3cc(NCc4cccnc4)c(C(N)=O)cn3)cc2)CC1 [Example 233]
5. NC(=O)c1cnc(Nc2ccc(C(=O)N3CCC3)cc2)cc1NCc1ccccc1 [Example 46]
6. NC(=O)c1cnc(Nc2ccc(C3CCN(C(=O)C4CCOCC4)CC3)cc2)cc1NCc1ccccc1F [Example 119]

Reply:
[52, 20, 67, 33, 80, 47]

Record inhibition at 1 µM per entry; entries follow.
1. NC(=O)c1cnc(Nc2cccc(OCCN3CCCC3)c2)cc1N[C@H](CO)c1ccccc1 [Example 59]
2. COc1ccc(Nc2cc(NCc3cc(F)ccc3F)c(C(N)=O)cn2)cc1 [Example 83]
3. NC(=O)c1cnc(Nc2ccc(CN3CCOCC3)cc2)cc1NCc1ccccc1 [Example 431]

Reply:
[27, 23, 24]

---

target: JAK2 (Homo sapiens); construct: 5 μl of catalytic domain recombinant Kinase enzyme+Tyr peptide substrate (Invitrogen, CA); assay: Z'-LYTE kinase assay JAK2
Sequence (O60674 849-1124 limits assumed): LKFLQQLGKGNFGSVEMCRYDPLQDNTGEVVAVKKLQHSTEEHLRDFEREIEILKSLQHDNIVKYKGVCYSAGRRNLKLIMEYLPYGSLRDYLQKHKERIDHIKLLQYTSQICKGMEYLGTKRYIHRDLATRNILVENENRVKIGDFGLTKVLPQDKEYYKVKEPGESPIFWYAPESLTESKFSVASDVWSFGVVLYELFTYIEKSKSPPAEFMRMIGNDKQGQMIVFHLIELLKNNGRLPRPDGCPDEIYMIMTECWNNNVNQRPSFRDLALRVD
Recorded Metric: IC50

Example entries begin here.
# Smiles Repr, IC50
measured = [
    ("CCS(=O)(=O)N1CCC(c2ccc(Nc3cc(NCc4ccccc4F)c(C(N)=O)cn3)cc2)CC1", "> 1 µM"),
    ("NC(=O)c1cnc(Nc2ccc(N3CCOCC3)cc2)cc1Nc1ccc(N2CCOCC2)cc1", "> 1 µM"),
    ("NC(=O)c1cnc(Nc2ccc(S(=O)(=O)N3CCC3)cc2)nc1NCc1ccccc1", "0.1 to 1 µM"),
    ("CN(C(=O)C1CC1)c1ccc(Nc2cc(NCc3cccc4[nH]ccc34)c(C(N)=O)cn2)cc1", "0.01 to 0.1 µM"),
]

Proceeding to the next molecule to report its IC50.
Ask: I have this molecule here, N#CCc1ccc(Nc2cc(NCc3ccccc3)c(C(N)=O)cn2)cc1 , and I need its recorded IC50.
Reply: 0.1 to 1 µM

---

molecular target: JAK1 (Homo sapiens); construct: 5 μl of catalytic domain recombinant Kinase enzyme+Tyr peptide substrate (Invitrogen, CA); assay: Z'-LYTE kinase assay JAK1
Recorded Metric: IC50

Example entries begin here.
# Smiles Repr, Recorded Metric, Recorded Value
data = [
    ("NC(=O)c1cnc(Nc2ccc(C3CCOCC3)cc2)cc1NCc1ccccn1", "IC50", "> 1000 nM"),
    ("CCC(=O)N1CCC(c2ccc(Nc3cc(NCC4(c5ccccc5)CC4)c(C(N)=O)cn3)cc2)CC1", "IC50", "> 1000 nM"),
    ("CCC(=O)N1CCC(c2ccc(Nc3cc(NCC4CCOCC4)c(C(N)=O)cn3)cc2)CC1", "IC50", "> 1000 nM"),
]

Record IC50 per entry; entries follow.
1. CCC(=O)N1CCN(c2ccc(Nc3cc(NCc4cccc(F)c4F)c(C(N)=O)cn3)cc2)CC1
2. CC(=O)N1CCC(c2ccc(Nc3cc(NCc4ccccc4F)c(C(N)=O)cn3)cc2)CC1
3. CN(C)C(=O)c1ccc(Nc2cc(NCc3cccc4c3ccn4C)c(C(N)=O)cn2)cc1
4. CC(=O)N(C)c1ccc(Nc2cc(NCc3cccc(F)n3)c(C(N)=O)cn2)cc1
5. N#CCCc1ccc(Nc2cc(NCc3ccccc3)c(C(N)=O)cn2)cc1
6. CC(=O)N1CCN(c2ccc(Nc3cc(NC(C)C)c(C(N)=O)cn3)cc2)CC1
7. CN1CCC(c2ccc(Nc3cc(NCc4ccccc4F)c(C(N)=O)cn3)cc2)CC1
8. COc1ccc(Nc2cc(NC[C@H]3CCCNC3)c(C(N)=O)cn2)cc1

Reply:
1. 100 to 1000 nM
2. 100 to 1000 nM
3. 100 to 1000 nM
4. > 1000 nM
5. 100 to 1000 nM
6. > 1000 nM
7. 100 to 1000 nM
8. 100 to 1000 nM

Record IC50 per entry; entries follow.
1. NC(=O)c1cnc(Nc2cccc(F)c2)cc1NCc1cncc(F)c1
2. Cc1cccc(Nc2cc(Nc3ccc(OCCN4CCCC4)cc3)ncc2C(N)=O)c1
3. CN(C)C(=O)c1ccc(Nc2cc(NCc3cccc(S(C)(=O)=O)c3)c(C(N)=O)cn2)cc1
4. N#Cc1ccc(Nc2cc(NCc3cncc(F)c3)c(C(N)=O)cn2)cc1

Reply:
["100 to 1000 nM", "> 1000 nM", "> 1000 nM", "> 1000 nM"]

---

target: JAK1 (Homo sapiens, UniProt P23458); construct: 5 μl of catalytic domain recombinant Kinase enzyme+Tyr peptide substrate (Invitrogen, CA); assay: Z'-LYTE kinase assay JAK1
Sequence (P23458 875-1153 limits assumed): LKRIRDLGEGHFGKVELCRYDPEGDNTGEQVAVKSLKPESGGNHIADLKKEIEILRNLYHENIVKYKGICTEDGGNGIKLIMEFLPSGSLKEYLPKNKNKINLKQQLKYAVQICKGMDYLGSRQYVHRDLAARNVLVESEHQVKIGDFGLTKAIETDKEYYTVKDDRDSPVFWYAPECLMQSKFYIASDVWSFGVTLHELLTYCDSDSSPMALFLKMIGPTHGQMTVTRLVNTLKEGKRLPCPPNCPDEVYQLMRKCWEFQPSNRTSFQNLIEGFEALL
Recorded Metric: IC50

Example entries begin here.
# Smiles Repr, IC50
data = [
    ("COC[C@@H](Nc1cc(Nc2ccc(N3CCOCC3)cc2)ncc1C(N)=O)c1ccccc1", "> 1000 nM"),
    ("CN(C(=O)C1CC1)c1ccc(Nc2cc(NCc3cncc(F)c3)c(C(N)=O)cn2)cc1", "100 to 1000 nM"),
    ("CS(=O)(=O)c1ccc(Nc2cc(NCc3cccc(-c4ccncc4)c3)c(C(N)=O)cn2)cc1", "> 1000 nM"),
    ("NC(=O)c1cnc(Nc2ccc(C3CCN(S(=O)(=O)C4CC4)CC3)cc2)cc1NCc1ccccc1F", "> 1000 nM"),
    ("CN(C)C(=O)c1ccc(Nc2cc(NCc3ccccc3)c(C(N)=O)cn2)cc1Cl", "> 1000 nM"),
]

Record IC50 per entry; entries follow.
1. CCC(=O)N1CCC(c2ccc(Nc3cc(NCc4ccc(F)c(F)c4)c(C(N)=O)cn3)cc2)CC1
2. NC(=O)c1cnc(Nc2ccc(C(=O)N3CCOCC3)cc2)cc1NCC1CCCC1
3. N#CCC(=O)N1CCC(c2ccc(Nc3cc(NCc4ccccc4F)c(C(N)=O)cn3)cc2)CC1
4. CN(C)C(=O)c1ccc(Nc2cc(NCc3cccc(-c4ccncc4)c3)c(C(N)=O)cn2)cc1
5. CCC(=O)N1CCC(c2ccc(Nc3cc(NCc4cc(F)ccc4F)c(C(N)=O)cn3)cc2)CC1
6. NC(=O)c1cnc(Nc2ccc(Cl)cc2)cc1NCc1ccccc1
7. CC(=O)N1CCN(c2ccc(Nc3cc(NCc4ccccc4)c(C(N)=O)cn3)cc2)CC1

Reply:
1. > 1000 nM
2. 100 to 1000 nM
3. 100 to 1000 nM
4. 100 to 1000 nM
5. 100 to 1000 nM
6. > 1000 nM
7. 100 to 1000 nM

Record IC50 per entry; entries follow.
1. CN(C)C(=O)c1ccc(Nc2cc(NCc3ccccc3)c(C(N)=O)cn2)cc1F
2. COC[C@@H](Nc1cc(Nc2ccc(C(=O)N3CCC3)cc2)ncc1C(N)=O)c1ccccc1
3. NC(=O)c1cnc(Nc2ccc(C3CCOCC3)cc2)cc1NC1CCCCC1
4. CN(C)C(=O)C1CCN(c2ccc(Nc3cc(NCc4cccc5ccsc45)c(C(N)=O)cn3)cc2Cl)CC1
5. NC(=O)c1cnc(Nc2cccc(C3CCOCC3)c2)cc1NCc1cncc(F)c1

Reply:
1. > 1000 nM
2. 100 to 1000 nM
3. > 1000 nM
4. 100 to 1000 nM
5. 100 to 1000 nM

Record IC50 per entry; entries follow.
1. CC(=O)N(C)c1ccc(Nc2cc(NCc3cccc4[nH]ccc34)c(C(N)=O)cn2)cc1
2. COCC(=O)N1CCC[C@H](CNc2cc(Nc3ccc(OC)cc3)ncc2C(N)=O)C1

Reply:
1. 10 to 100 nM
2. > 1000 nM

Record IC50 per entry; entries follow.
1. CC(=O)N1CCN(c2ccc(Nc3ccc(C(N)=O)c(NC4CCC4)n3)cc2)CC1
2. CS(=O)(=O)N1CCC(c2cccc(Nc3cc(NCc4ccccc4F)c(C(N)=O)cn3)c2)CC1
3. N#CC1(C(=O)N2CCC(c3ccc(Nc4cc(NCc5ccccc5F)c(C(N)=O)cn4)cc3)CC2)CC1
4. Cn1c(CNc2cc(Nc3ccc(C4CCOCC4)cc3)ncc2C(N)=O)nc2ccccc21
5. NC(=O)c1cc(F)c(Nc2ccc(OCCN3CCCC3)cc2)nc1NC1CCCC1

Reply:
["100 to 1000 nM", "100 to 1000 nM", "> 1000 nM", "> 1000 nM", "> 1000 nM"]

Reference for the values: patent US20150353495A1
